# System name: human CD33 P132Y (human, UniProt P20138 18-364)
# Sequence (P20138 18-364 P132Y limits assumed): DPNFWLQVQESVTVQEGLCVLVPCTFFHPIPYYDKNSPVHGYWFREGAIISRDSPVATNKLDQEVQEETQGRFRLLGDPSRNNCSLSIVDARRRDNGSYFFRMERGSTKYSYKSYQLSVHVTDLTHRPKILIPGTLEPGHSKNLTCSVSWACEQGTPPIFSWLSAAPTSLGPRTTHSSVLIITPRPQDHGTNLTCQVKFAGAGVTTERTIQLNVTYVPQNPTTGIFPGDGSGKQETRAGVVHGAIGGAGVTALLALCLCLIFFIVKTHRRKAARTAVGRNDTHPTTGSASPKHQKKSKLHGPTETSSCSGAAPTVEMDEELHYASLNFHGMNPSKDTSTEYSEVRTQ
# Run description: flow cytometry, HEK293-T, IgG;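 note: CD33 point mutants transiently expressed, antibody binding measured by fluorescence in duplicate, background subtracted and scaled to binding on wild-type CD33 as 100%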
I'd be grateful if you could share measured Mean % WT Binding for these entries.
Express it in % WT binding; write the number only.

// returns reported Mean % WT Binding for input Refmab #4 (antibody, human IgG1, V domains shown, tested in IgG format) VH: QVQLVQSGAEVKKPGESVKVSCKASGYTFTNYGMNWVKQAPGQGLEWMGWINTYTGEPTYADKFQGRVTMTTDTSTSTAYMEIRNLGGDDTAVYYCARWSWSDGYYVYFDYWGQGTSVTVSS VL: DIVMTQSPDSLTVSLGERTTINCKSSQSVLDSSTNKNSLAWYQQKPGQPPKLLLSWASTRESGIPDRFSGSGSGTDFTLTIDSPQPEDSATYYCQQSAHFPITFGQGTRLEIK
78.6

Also, Refmab #3 (antibody, human IgG1, V domains shown, tested in IgG format) VH: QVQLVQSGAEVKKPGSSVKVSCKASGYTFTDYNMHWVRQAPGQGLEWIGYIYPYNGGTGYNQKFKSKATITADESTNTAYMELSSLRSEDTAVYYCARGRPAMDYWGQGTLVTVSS VL: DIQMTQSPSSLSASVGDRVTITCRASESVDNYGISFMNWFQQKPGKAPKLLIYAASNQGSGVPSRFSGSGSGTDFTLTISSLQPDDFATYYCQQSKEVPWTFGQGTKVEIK please.
85.2

Also, Refmab #2 (antibody, human IgG1, V domains shown, tested in IgG format) VH: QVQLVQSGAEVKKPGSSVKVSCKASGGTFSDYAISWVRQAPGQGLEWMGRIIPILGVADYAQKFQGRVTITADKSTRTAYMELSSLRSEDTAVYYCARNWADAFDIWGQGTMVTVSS VL: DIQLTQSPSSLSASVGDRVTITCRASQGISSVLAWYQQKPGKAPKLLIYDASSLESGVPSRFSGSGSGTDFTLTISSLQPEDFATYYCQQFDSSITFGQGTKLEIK please.
65

Also, Refmab #1 (antibody, human IgG1, V domains shown, tested in IgG format; also called hP67.6) VH: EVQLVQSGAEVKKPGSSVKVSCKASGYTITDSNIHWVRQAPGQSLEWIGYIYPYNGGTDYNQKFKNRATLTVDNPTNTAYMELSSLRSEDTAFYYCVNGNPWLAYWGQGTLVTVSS VL: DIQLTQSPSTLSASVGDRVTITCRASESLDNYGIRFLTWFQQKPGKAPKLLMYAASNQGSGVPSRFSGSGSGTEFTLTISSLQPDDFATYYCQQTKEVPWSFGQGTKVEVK please.
93.5
